Values from paper PMC7824897

experiment: in vivo
particulars: female, athymic nude-Foxn1nu/Foxn1+, mouse, 20 pmol, total radioactivity, Biodistribution Pituitary
Where a SMILES comes first, the peptide text is derived from it. Bridges are numbered along the chain shown (N, C = ends). [ ]: non-standard residue; d: D form. The star is where a group is joined. dPhe(4-NHCONH2) = NC(=O)Nc1ccc(C[C@@H](N)C(=O)O)cc1; Phe(4-Cl) = N[C@@H](Cc1ccc(Cl)cc1)C(=O)O; X1 = NCCNCC(CNCCN)C(=O)*

>  <molecule>
C[C@@H](O)[C@@H]1NC(=O)[C@H](CCCCN)NC(=O)[C@@H](Cc2c[nH]c3ccccc23)NC(=O)[C@H](Cc2ccc(O)cc2)NC(=O)[C@H](NC(=O)[C@H](Cc2ccc(Cl)cc2)NC(=O)C(CNCCN)CNCCN)CSSC[C@@H](C(=O)N[C@H](Cc2ccc(O)cc2)C(N)=O)NC1=O [[^99mTc]Tc-TECANT-2, metal not drawn]

>  <unit-name>
%ID/g

>  <tissue uptake at 24 h>
2.12

$$$$
>  <molecule>
C[C@@H](O)[C@@H]1NC(=O)[C@H](CCCCN)NC(=O)[C@@H](Cc2ccc(NC(N)=O)cc2)NC(=O)[C@H](Cc2ccc(O)cc2)NC(=O)[C@H](NC(=O)[C@H](Cc2ccc(Cl)cc2)NC(=O)C(CNCCN)CNCCN)CSSC[C@@H](C(=O)N[C@H](Cc2ccc(O)cc2)C(N)=O)NC1=O [[^99mTc]Tc-TECANT-1, metal not drawn] (X1-[Phe(4-Cl)][dC]Y[dPhe(4-NHCONH2)]KTC[dY]-NH2; disulfide 2-7)

>  <unit-name>
%ID/g

>  <tissue uptake at 24 h>
4.35

$$$$
